Measured Enzyme degradation CDK9 (% remaining) @ 0.1 μM accompanies every entry in the list below.
# target: CDK9 (Homo sapiens, UniProt P50750)
# Construct: endogenous in cells; host or cells: MDA-MB-231
# Sequence (P50750 whole entry): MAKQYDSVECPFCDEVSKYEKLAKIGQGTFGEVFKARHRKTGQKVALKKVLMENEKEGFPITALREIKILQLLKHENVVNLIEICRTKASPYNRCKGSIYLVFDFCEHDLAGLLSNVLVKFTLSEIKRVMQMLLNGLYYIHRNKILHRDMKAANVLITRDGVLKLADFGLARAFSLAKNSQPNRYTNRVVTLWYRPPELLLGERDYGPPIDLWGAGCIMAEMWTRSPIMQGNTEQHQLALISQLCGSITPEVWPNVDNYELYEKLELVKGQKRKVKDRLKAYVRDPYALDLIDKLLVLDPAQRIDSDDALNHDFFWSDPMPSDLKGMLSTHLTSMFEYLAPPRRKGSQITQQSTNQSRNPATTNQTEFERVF
# testDetails: CDK protein degradation activity (Western blotting), CDK9
# Assay type: cell-based
# measurementConditions: MDA-MB-231 cells, 0.1 μM, 16 hours, Western blot
Dear colleague, please return just the value in %, with no unit written.

What value of measured Enzyme degradation CDK9 (% remaining) @ 0.1 μM is listed for O=C1CC[C@H](N2C(=O)c3cccc(NCC(=O)N4CCC5(CC(N6CCN(c7ccc(Nc8ncnc9c8ncn9C8CC(NC(=O)Cc9ccccc9)C8)cc7)CC6)C5)C4)c3C2=O)C(=O)N1 (some centres unmarked) ? 20

What value of measured Enzyme degradation CDK9 (% remaining) @ 0.1 μM is listed for O=C1CC[C@H](N2C(=O)C=C(Nc3cccc(CC(=O)N4CCC(CN5CCN(c6ccc(Nc7ncnc8c7ncn8C7CC(NC(=O)Cc8ccccc8)C7)cc6)CC5)CC4)c3)C2=O)C(=O)N1 (some centres unmarked) ? 20

What value of measured Enzyme degradation CDK9 (% remaining) @ 0.1 μM is listed for O=C1CC[C@@H](c2ccc(OCC(=O)N3CCC(CN4CCN(c5ccc(Nc6ncnc7c6ncn7C6CC(NC(=O)Cc7ccccc7)C6)cc5)CC4)CC3)cc2)C(=O)N1 (some centres unmarked) ? 10

* * *

# target: CDK2 (Homo sapiens)
# Construct: endogenous in cells; host or cells: MDA-MB-231
# testDetails: CDK protein degradation activity (Western blotting), CDK2
# Format: cell-based
# measurementConditions: MDA-MB-231 cells, 0.1 μM, 16 hours, Western blot
measurementLabel: Enzyme degradation CDK2 (% remaining) @ 0.1 μM

O=C1CC[C@H](N2C(=O)c3cccc(NCC(=O)N4CCC5(CC(N6CCN(c7ccc(Nc8ncnc9c8ncn9C8CC(NC(=O)Cc9ccccc9)C8)cc7)CC6)C5)C4)c3C2=O)C(=O)N1 (stereo partly shown) [Compound 263]	50%
O=C1CC[C@H](N2C(=O)c3ccc(NCC(=O)N4CC(N5CCC6(CC5)CC(N5CCN(c7ccc(Nc8ncnc9c8ncn9C8CC(NC(=O)Cc9ccccc9)C8)cc7)CC5)C6)C4)cc3C2=O)C(=O)N1 (stereo partly shown) [Compound 278]	50/50/50%
O=C1CC[C@H](N2C(=O)c3cccc(NCC(=O)N4CCC5(CC4)CC(N4CCN(c6ccc(Nc7ncnc8c7ncn8[C@H]7C[C@@H](NC(=O)Cc8ccccc8)C7)cc6)CC4)C5)c3C2=O)C(=O)N1 [Compound 204]	20/20/20%

What value of measured Enzyme degradation CDK2 (% remaining) @ 0.1 μM is listed for O=C1CC[C@H](N2C(=O)c3cc(F)c(N4CCN(C5CC6(CCN(c7ccc(Nc8ncnc9c8ncn9[C@H]8C[C@@H](NC(=O)Cc9ccccc9)C8)cc7)CC6)C5)CC4)cc3C2=O)C(=O)N1 [Compound 336] ? 100%

What value of measured Enzyme degradation CDK2 (% remaining) @ 0.1 μM is listed for O=C1CC[C@H](N2C(=O)c3cc(F)c(N4CCC(CCCN5CCN(c6ccc(Nc7ncnc8c7ncn8[C@H]7C[C@@H](NC(=O)Cc8ccccc8)C7)cc6)CC5)CC4)cc3C2=O)C(=O)N1 [Compound 458] ? 50/50/50%

What value of measured Enzyme degradation CDK2 (% remaining) @ 0.1 μM is listed for N#Cc1cccc(C(=O)NC2CC(n3cnc4c(Nc5ccc(N6CCN(CC7CCN(c8ccc9c(c8)C(=O)N([C@H]8CCC(=O)NC8=O)C9=O)CC7)CC6)cc5)ncnc43)C2)n1 (stereo partly shown) [Compound 392] ? 0%

What value of measured Enzyme degradation CDK2 (% remaining) @ 0.1 μM is listed for O=C1CC[C@@H](c2cccc(OCC(=O)N3CCC4(CC3)CC(N3CCN(c5ccc(Nc6ncnc7c6ncn7C6CC(NC(=O)Cc7ccccc7)C6)cc5)CC3)C4)c2)C(=O)N1 (stereo partly shown) [Compound 226] ? 40%

What value of measured Enzyme degradation CDK2 (% remaining) @ 0.1 μM is listed for Cc1cccc(C(=O)N[C@H]2C[C@@H](n3cnc4c(NCc5cccc(OCCCN6CCN(C(=O)CNc7ccc8c(c7)C(=O)N([C@H]7CCC(=O)NC7=O)C8=O)CC6)c5)ncnc43)C2)n1 [Compound 102] ? 100%

What value of measured Enzyme degradation CDK2 (% remaining) @ 0.1 μM is listed for Cc1cccc(C(=O)NC2CC(n3cnc4c(Nc5ccc(N6CCN(CC7CCN(C(=O)CNc8cccc9c8C(=O)N([C@H]8CCC(=O)NC8=O)C9=O)CC7)CC6)cc5)ncnc43)C2)n1 (stereo partly shown) [Compound 93] ? 0%

What value of measured Enzyme degradation CDK2 (% remaining) @ 0.1 μM is listed for Cc1cccc(C(=O)NC2CC(n3cnc4c(NCc5cccc(N6CCN(CC7CCN(C(=O)CNc8ccc9c(c8)C(=O)N([C@H]8CCC(=O)NC8=O)C9=O)CC7)CC6)c5)ncnc43)C2)n1 (stereo partly shown) [Compound 135] ? 70%
